target: recombinant human pancreatic GLK (Homo sapiens); assay: biochemical
Sequence (P35557 whole entry): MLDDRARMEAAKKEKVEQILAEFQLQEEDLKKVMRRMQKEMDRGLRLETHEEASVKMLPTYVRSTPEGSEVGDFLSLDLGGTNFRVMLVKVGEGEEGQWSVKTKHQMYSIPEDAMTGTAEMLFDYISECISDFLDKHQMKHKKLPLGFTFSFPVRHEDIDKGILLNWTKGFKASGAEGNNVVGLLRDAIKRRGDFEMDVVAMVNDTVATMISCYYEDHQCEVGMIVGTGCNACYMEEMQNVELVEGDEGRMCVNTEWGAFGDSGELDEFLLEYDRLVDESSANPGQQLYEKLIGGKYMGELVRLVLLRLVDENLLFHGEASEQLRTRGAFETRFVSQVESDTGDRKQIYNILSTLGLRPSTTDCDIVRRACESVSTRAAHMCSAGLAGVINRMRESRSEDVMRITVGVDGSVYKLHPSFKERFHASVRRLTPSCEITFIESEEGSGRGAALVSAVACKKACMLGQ
readout-name: EC50 (nM)
Only the number, expressed in nM, is required.

q: Quick one: EC50 for "COC[C@H](C)Oc1cc(OCc2ccccc2)cc(-c2nc3cccnc3[nH]2)c1" ?
a: 600
